Target: kinases (Homo sapiens, UniProt P07949, V804M)
Construct: purchased Eurofins/DiscoveRx; host or cells: E. coli BL21-derived host (T7 phage display) for most kinases; HEK-293 for the rest
Sequence (P07949 29-1114 V804M): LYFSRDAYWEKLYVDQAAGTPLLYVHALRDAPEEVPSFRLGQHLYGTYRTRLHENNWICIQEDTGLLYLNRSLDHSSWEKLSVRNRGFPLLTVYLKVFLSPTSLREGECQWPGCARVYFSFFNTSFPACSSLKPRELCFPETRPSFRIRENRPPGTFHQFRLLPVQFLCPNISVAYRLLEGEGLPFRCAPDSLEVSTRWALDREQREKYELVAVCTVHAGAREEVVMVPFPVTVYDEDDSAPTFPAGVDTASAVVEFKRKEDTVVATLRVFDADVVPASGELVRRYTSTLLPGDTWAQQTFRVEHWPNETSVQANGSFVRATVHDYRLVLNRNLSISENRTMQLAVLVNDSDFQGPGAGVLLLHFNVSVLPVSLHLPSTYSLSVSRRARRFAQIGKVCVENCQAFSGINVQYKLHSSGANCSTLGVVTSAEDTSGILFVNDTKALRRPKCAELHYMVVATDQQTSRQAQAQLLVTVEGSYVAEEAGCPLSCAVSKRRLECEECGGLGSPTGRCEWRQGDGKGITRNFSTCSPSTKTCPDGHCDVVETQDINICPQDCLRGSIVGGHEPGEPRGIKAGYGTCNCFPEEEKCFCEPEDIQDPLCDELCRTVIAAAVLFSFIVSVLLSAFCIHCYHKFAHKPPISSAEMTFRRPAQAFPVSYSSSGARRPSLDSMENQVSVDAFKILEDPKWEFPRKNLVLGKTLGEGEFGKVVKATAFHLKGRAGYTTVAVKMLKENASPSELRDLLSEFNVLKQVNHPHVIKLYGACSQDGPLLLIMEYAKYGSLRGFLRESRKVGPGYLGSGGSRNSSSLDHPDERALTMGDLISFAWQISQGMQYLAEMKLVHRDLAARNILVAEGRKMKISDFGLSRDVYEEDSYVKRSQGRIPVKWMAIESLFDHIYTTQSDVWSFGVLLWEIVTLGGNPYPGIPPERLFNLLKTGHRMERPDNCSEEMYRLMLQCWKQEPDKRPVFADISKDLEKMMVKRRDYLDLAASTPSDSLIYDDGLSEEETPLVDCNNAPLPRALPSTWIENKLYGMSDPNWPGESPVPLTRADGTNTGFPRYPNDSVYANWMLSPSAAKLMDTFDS
Test: KINOMEscan kinase binding assay (Eurofins/DiscoveRx), % Ctrl
Conditions: 1 μM; RET(V804M)
Dear colleague, classification is by % Ctrl, RET(V804M), with ranges listed here: low bin (below 60 % Ctrl), mid bin (60 % Ctrl to below 80 % Ctrl), high bin (80 % Ctrl or more)

Prompt line: Into which category would you place Cc1cc2c([nH]1)/C=C1\C(=O)Nc3ccc(cc31)-c1cnn(C)c1CN(C)CCN(C)C2=O ?
Response line: low bin

---

I'd appreciate it if you could supply % Ctrl, ABL1-nonphosphorylated values for the items below.
Molecular target: kinases (Homo sapiens, UniProt P00519)
Construct: purchased Eurofins/DiscoveRx; host or cells: E. coli BL21-derived host (T7 phage display) for most kinases; HEK-293 for the rest
Assay: KINOMEscan kinase binding assay (Eurofins/DiscoveRx), % Ctrl
Conditions: target ABL1-nonphosphorylated; 1 μM
Answers are plain numbers, in % Ctrl.

Cc1cc2c([nH]1)/C=C1\C(=O)Nc3ccc(cc31)-c1c(C)nn(C)c1COCCN(C)C2=O [Ex. 146]    64

Kindly give each listed record's % Ctrl, ABL1-nonphosphorylated.
1. Cc1nn(C)c2c1-c1ccc3c(c1)/C(=C/c1[nH]ccc1C(=O)N(C)CCCO2)C(=O)N3 [Ex. 150]
2. Cc1cc2c([nH]1)/C=C1\C(=O)Nc3cnc(cc31)-c1cn[nH]c1CNCCN(C)C2=O [Ex. 55]

Response line:
1: 82; 2: 10

---

Biological target: kinases (Homo sapiens, UniProt P00519, F317L)
Construct: purchased Eurofins/DiscoveRx; host or cells: E. coli BL21-derived host (T7 phage display) for most kinases; HEK-293 for the rest
Test: KINOMEscan kinase binding assay (Eurofins/DiscoveRx), % Ctrl
Settings: 1 μM; target ABL1(F317L)-nonphosphorylated
I'd be grateful if you could share measured % Ctrl, ABL1(F317L)-nonphosphorylated for these entries.
Returns: string containing the number followed by the unit.

Cc1cc2c([nH]1)/C=C1\C(=O)Nc3ccc(cc31)-c1cnn(C)c1OCCCN(C)C2=O [Ex. 166]    41 % Ctrl

# per-item lookup of % Ctrl, ABL1(F317L)-nonphosphorylated; items listed below
1. Cc1cc2c([nH]1)/C=C1\C(=O)Nc3ccc(cc31)-c1c(noc1C(C)C)COCCN(C)C2=O [Ex. 161]
2. CN1CCOc2cc3c(cc2Cl)NC(=O)/C3=C\c2[nH]ccc2C(=O)N(C)CC1 [Ex. 164]
3. Cc1cc2c([nH]1)/C=C1\C(=O)Nc3cc(Cl)c(cc31)SCCOCCN(C)C2=O [Ex. 169]
4. Cc1cc2c([nH]1)/C=C1\C(=O)Nc3cnc(cc31)-c1cnn(C)c1CN(C)CCN(C)C2=O [Ex. 172]

Response line:
1. 93 % Ctrl
2. 1.6 % Ctrl
3. 0.6 % Ctrl
4. 7.1 % Ctrl

---

Molecular target: kinases (Homo sapiens, UniProt P00533)
Construct: purchased Eurofins/DiscoveRx; host or cells: E. coli BL21-derived host (T7 phage display) for most kinases; HEK-293 for the rest
Assay: KINOMEscan kinase binding assay (Eurofins/DiscoveRx), % Ctrl
Conditions: 1 μM; EGFR
Criterion: % Ctrl, EGFR meeting or surpassing 60 % Ctrl. Met: rule met. Not met: rule not met.

Prompt line: Confirm if % Ctrl, EGFR reported for the compound Cc1cc2c([nH]1)/C=C1\C(=O)Nc3ccc(cc31)OCCOCCN(C)C2=O [Ex.91] is 60 % Ctrl or above.
Response line: rule met

Prompt line: Same thing, different compound: Cc1cc2c([nH]1)/C=C1\C(=O)Nc3cc(Cl)c(cc31)OCCOCCN(C)C2=O [Ex. 131]
Response line: rule not met

---

Biological target: kinases (Homo sapiens, UniProt P36888)
Construct: purchased Eurofins/DiscoveRx; host or cells: E. coli BL21-derived host (T7 phage display) for most kinases; HEK-293 for the rest
Sequence (P36888 27-993): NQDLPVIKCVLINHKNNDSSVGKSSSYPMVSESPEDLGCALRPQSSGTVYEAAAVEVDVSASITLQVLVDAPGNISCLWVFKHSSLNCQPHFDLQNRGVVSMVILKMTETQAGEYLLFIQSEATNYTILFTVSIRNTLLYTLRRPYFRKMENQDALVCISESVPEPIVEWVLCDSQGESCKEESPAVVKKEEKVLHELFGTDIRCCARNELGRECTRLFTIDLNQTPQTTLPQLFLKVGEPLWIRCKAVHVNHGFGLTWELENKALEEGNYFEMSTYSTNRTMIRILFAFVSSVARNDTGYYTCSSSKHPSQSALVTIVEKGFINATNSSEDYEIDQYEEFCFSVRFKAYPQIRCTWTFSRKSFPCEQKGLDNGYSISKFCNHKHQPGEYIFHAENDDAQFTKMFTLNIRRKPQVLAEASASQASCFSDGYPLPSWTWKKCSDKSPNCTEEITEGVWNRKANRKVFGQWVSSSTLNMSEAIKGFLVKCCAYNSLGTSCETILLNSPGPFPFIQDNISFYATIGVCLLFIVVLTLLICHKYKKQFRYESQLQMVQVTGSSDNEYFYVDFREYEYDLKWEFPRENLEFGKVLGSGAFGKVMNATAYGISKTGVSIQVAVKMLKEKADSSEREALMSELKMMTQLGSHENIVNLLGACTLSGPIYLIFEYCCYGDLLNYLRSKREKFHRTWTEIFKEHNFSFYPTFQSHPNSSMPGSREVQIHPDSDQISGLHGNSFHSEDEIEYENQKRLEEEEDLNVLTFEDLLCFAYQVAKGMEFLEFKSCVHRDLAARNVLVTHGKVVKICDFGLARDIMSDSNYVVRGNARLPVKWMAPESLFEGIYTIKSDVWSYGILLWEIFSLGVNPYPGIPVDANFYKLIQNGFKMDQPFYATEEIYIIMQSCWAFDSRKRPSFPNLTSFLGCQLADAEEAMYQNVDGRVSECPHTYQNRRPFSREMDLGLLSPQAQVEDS
Experiment: KINOMEscan kinase binding assay (Eurofins/DiscoveRx), % Ctrl
Conditions: 1 μM; FLT3-autoinhibited
endpoint name: % Ctrl, FLT3-autoinhibited (% Ctrl)
Answers are plain numbers, in % Ctrl.

Cc1cc2c([nH]1)/C=C1\C(=O)Nc3cc(Cl)c(cc31)OCCOCCN(C)C2=O    5.1
Cc1cc2c([nH]1)/C=C1\C(=O)Nc3cnc(cc31)-c1cnn(C)c1COCCNC2=O    100
Cc1cc2c([nH]1)/C=C1\C(=O)Nc3cc(Cl)c(cc31)OCCO[C@@H](C(=O)N(C)C)CN(C)C2=O    77
Cc1cc2c([nH]1)/C=C1\C(=O)Nc3cc(Cl)c(cc31)OCCO[C@@H](C(=O)N[C@@H]1CCNC1)CN(C)C2=O    97
Cc1cc2c([nH]1)/C=C1\C(=O)Nc3ccc(cc31)-c1cnn(C)c1CNCCN(C)C2=O    0.15

Would you be so kind as to report % Ctrl, FLT3-autoinhibited for each listed record?
1. Cc1cc2c([nH]1)/C=C1\C(=O)Nc3ccc(cc31)-c1ccnn1CCOCCNC2=O
2. Cc1cc2c([nH]1)/C=C1\C(=O)Nc3ccc(cc31)-c1c(C)n[nH]c1CNCCN(C)C2=O
3. Cc1cc2c([nH]1)/C=C1\C(=O)Nc3ccc(cc31)OCCOCCNC2=O
4. Cc1cc2c([nH]1)/C=C1\C(=O)Nc3ccc(nc31)-c1ccccc1OCCCNC2=O

Response line:
85
9.9
98
100

# map each compound to its % Ctrl, FLT3-autoinhibited
1. Cc1cc2c([nH]1)/C=C1\C(=O)Nc3ccc(cc31)-c1ccnn1CCOCCN(C)C2=O
2. Cc1cc2c([nH]1)/C=C1\C(=O)Nc3ccc(cc31)-c1cnn(C)c1COCCN(C)C2=O

Response line:
1. 50
2. 0.35

Count: 2. Required value per item: % Ctrl, FLT3-autoinhibited.
1. Cc1cc2c([nH]1)/C=C1\C(=O)Nc3ccc(cc31)O[C@@H](C)COCCN(C)C2=O
2. CNC(=O)[C@H]1CN(C)C(=O)c2cc(C)[nH]c2/C=C2\C(=O)Nc3cc(Cl)c(cc32)OCCO1

Response line:
96
89

---

Target: kinases (Homo sapiens, UniProt P00519, Q252H)
Construct: purchased Eurofins/DiscoveRx; host or cells: E. coli BL21-derived host (T7 phage display) for most kinases; HEK-293 for the rest
Test: KINOMEscan kinase binding assay (Eurofins/DiscoveRx), % Ctrl
Conditions: target ABL1(Q252H)-nonphosphorylated; 1 μM
endpoint name: % Ctrl, ABL1(Q252H)-nonphosphorylated
Show the value, then the unit it is measured in.

Below: 6 compounds and their reported % Ctrl, ABL1(Q252H)-nonphosphorylated.
Cc1cc2c([nH]1)/C=C1\C(=O)Nc3ccc(cc31)-c1c(C)nn(C)c1COCCN(C)C2=O [Ex. 146]    74 % Ctrl
CN1CCSCCOc2cc3c(cc2Cl)NC(=O)/C3=C\c2[nH]ccc2C1=O [Ex. 153]    1.8 % Ctrl
Cc1nn(C)c2c1-c1ccc3c(c1)/C(=C/c1[nH]ccc1C(=O)N(C)CCCO2)C(=O)N3 [Ex. 150]    93 % Ctrl
Cc1cc2c([nH]1)/C=C1\C(=O)Nc3ccc(cc31)-c1c(noc1C)CNCCN(C)C2=O [Ex. 139]    7.8 % Ctrl
Cc1cc2c([nH]1)/C=C1\C(=O)Nc3cc(Cl)c(cc31)OCCO[C@@H](C(=O)N1CCN(C)CC1)CN(C)C2=O [Ex. 138]    100 % Ctrl
Cc1cc2c([nH]1)/C=C1\C(=O)Nc3cnc(cc31)-c1cn[nH]c1CNCCN(C)C2=O [Ex. 55]    2.8 % Ctrl

Consider now this further compound.
Prompt line: % Ctrl, ABL1(Q252H)-nonphosphorylated for CN1CCOCCOc2cc3c(cc2Cl)NC(=O)/C3=C\c2[nH]ccc2C1=O [Ex. 143] ?
Response line: 4.1 % Ctrl

---

Target: kinases (Homo sapiens, UniProt P00533, G719S)
Construct: purchased Eurofins/DiscoveRx; host or cells: E. coli BL21-derived host (T7 phage display) for most kinases; HEK-293 for the rest
Experiment: KINOMEscan kinase binding assay (Eurofins/DiscoveRx), % Ctrl
Settings: 1 μM; EGFR(G719S)
endpoint name: % Ctrl, EGFR(G719S) (% Ctrl)
Give bare numbers, in % Ctrl.

Cc1cc2c([nH]1)/C=C1\C(=O)Nc3ccc(cc31)-c1c(C)n[nH]c1CNCCN(C)C2=O    72
Cc1cc2c([nH]1)/C=C1\C(=O)Nc3ccc(cc31)-c1cnn(C)c1CNCCN(C)C2=O    88
Cc1cc2c([nH]1)/C=C1\C(=O)Nc3cc(Cl)c(cc31)OCCO[C@@H](C(=O)NC1CCNCC1)CN(C)C2=O    92
Cc1cc2c([nH]1)/C=C1\C(=O)Nc3cc(Cl)c(cc31)OCCO[C@@H](C(=O)NC1CNC1)CN(C)C2=O    99
Cc1cc2c([nH]1)/C=C1\C(=O)Nc3ccc(nc31)-c1ccccc1OCCCNC2=O    95

For each of the molecules below, state % Ctrl, EGFR(G719S).
1. Cc1cc2c([nH]1)/C=C1\C(=O)Nc3ccc(cc31)-c1cnn(C)c1CN(C)CCN(C)C2=O
2. Cc1cc2c([nH]1)/C=C1\C(=O)Nc3ccc(cc31)-c1ccnn1CCOCCN(C)C2=O
3. Cc1cc2c([nH]1)/C=C1\C(=O)Nc3ccc(cc31)CN(C)C(=O)COCCNC2=O

Response line:
1: 57; 2: 86; 3: 77

These data points were gathered from patent US20230257396A1.
